Measured values drawn from patent USRE48461E1 for this set.

Test system: AR mRNA
Method: Dose-dependent antisense inhibition of human AR in HuVEC cells (electroporation, qRT-PCR RTS3559, IC50)
Type: cell-based
Cond: Table 31; HuVEC, electroporation, approximately 16 hours
Protocol: After a treatment period of approximately 16 hours, RNA was isolated from the cells and AR mRNA levels were measured by quantitative real-time PCR. Human AR primer probe set RTS3559 was used to measure mRNA levels. AR mRNA levels were adjusted according to total RNA content, as measured by RIBOGREEN®. […] After a treatment period of approximately 16 hours, RNA was isolated from the cells and AR mRNA levels were measured by quantitative real-time PCR. […]
pIC50: −log10 of the molar value. Oligonucleotides are written 5' to 3', each unit as a sugar letter and its base; * is a phosphorothioate linkage, no mark a phosphodiester; rarer units and linkages stand in square brackets, end groups in braces. Plain capitals give the bases only. k = constrained ethyl (cEt); [5mC] = 5-methylcytosine; d = 2'-deoxy (DNA)

Substance	pIC50
583799 (antisense kT*kG*k[5mC]*d[5mC]*dT*dT*d[5mC]*dG*dG*dA*dT*dA*d[5mC]*kT*kG*k[5mC]) [compound 583799]	6.85
583747 (antisense kG*k[5mC]*kT*dG*d[5mC]*dG*d[5mC]*dT*d[5mC]*dG*d[5mC]*dG*dG*k[5mC]*k[5mC]*kT) [compound 583747]	6.19
549458 (kG*kT*kT*dG*dA*dT*dT*dT*dA*dA*dT*dG*dG*kT*kT*kG) [compound 549458]	6.89
583713 (antisense kA*kT*k[5mC]*d[5mC]*dT*dT*dG*dA*dG*d[5mC]*dT*dT*dG*kG*k[5mC]*kT) [compound 583713]	6.66
583809 (antisense kT*kG*kT*d[5mC]*d[5mC]*dT*dT*dG*dG*dA*dG*dG*dA*kA*kG*kT) [compound 583809]	6.44
583719 (antisense kG*kT*kA*dG*dG*dT*d[5mC]*dT*dT*dG*dG*dA*d[5mC]*kG*kG*k[5mC]) [compound 583719]	6.49

----------
System: AR mRNA
Method: Antisense inhibition of human AR in HuVEC cells, single concentration (electroporation, qRT-PCR RTS3559)
Assay type: cell-based
Cond: Table 21, 500 nM oligonucleotide, electroporation, approximately 24 hours, relative to untreated control
Oligonucleotides are written 5' to 3', each unit as a sugar letter and its base; * is a phosphorothioate linkage, no mark a phosphodiester; rarer units and linkages stand in square brackets, end groups in braces. Plain capitals give the bases only. k = constrained ethyl (cEt); [5mC] = 5-methylcytosine; d = 2'-deoxy (DNA)
Catalogue of % inhibition readings, one per entry.
Outcome Measure: % inhibition

Substance	Outcome Measure	Observed Result
583918 (kA*kG*kT*d[5mC]*dG*d[5mC]*dG*dA*d[5mC]*dT*d[5mC]*dT*dG*kG*kT*kA) [compound 583918]	% inhibition	47%
583933 (k[5mC]*kA*kG*d[5mC]*dG*dG*dG*dT*dT*d[5mC]*dT*d[5mC]*d[5mC]*kA*kG*k[5mC]; antisense) [compound 583933]	% inhibition	38%
583969 (k[5mC]*k[5mC]*kT*dT*d[5mC]*dT*dT*d[5mC]*dG*dG*d[5mC]*dT*dG*kT*kG*kA; antisense) [compound 583969]	% inhibition	44%
549372 (kA*kA*kG*dT*dT*dG*dT*dA*dG*dT*dA*dG*dT*k[5mC]*kG*k[5mC]) [compound 549372]	% inhibition	37%
583932 (kT*k[5mC]*kT*d[5mC]*d[5mC]*dA*dG*d[5mC]*dT*dT*dG*dA*dT*kG*k[5mC]*kG; antisense) [compound 583932]	% inhibition	39%
583917 (kT*k[5mC]*kG*d[5mC]*dG*dA*d[5mC]*dT*d[5mC]*dT*dG*dG*dT*kA*k[5mC]*kG; antisense) [compound 583917]	% inhibition	37%
549458 (kG*kT*kT*dG*dA*dT*dT*dT*dA*dA*dT*dG*dG*kT*kT*kG) [compound 549458]	% inhibition	47%
583922 (kA*kG*kT*dT*dG*dT*dA*dG*dT*dA*dG*dT*d[5mC]*kG*k[5mC]*kG; antisense) [compound 583922]	% inhibition	37%
583920 (kT*kA*kG*dT*dA*dG*dT*d[5mC]*dG*d[5mC]*dG*dA*d[5mC]*kT*k[5mC]*kT; antisense) [compound 583920]	% inhibition	42%
583919 (kG*kT*kA*dG*dT*d[5mC]*dG*d[5mC]*dG*dA*d[5mC]*dT*d[5mC]*kT*kG*kG; antisense) [compound 583919]	% inhibition	55%
